# Subject of test: PI3K beta (Homo sapiens, UniProt P42338)
# Construct: for the full-length p110-b subunit are generated and fused by overlapping PCR; p85(iSH2) fusion partner (see partner chain) (N); His tag (C); Tn5 (Trichoplusia ni) or TiniPro insect cells
# Sequence (P42338 with tags, fused parts or gaps limits assumed): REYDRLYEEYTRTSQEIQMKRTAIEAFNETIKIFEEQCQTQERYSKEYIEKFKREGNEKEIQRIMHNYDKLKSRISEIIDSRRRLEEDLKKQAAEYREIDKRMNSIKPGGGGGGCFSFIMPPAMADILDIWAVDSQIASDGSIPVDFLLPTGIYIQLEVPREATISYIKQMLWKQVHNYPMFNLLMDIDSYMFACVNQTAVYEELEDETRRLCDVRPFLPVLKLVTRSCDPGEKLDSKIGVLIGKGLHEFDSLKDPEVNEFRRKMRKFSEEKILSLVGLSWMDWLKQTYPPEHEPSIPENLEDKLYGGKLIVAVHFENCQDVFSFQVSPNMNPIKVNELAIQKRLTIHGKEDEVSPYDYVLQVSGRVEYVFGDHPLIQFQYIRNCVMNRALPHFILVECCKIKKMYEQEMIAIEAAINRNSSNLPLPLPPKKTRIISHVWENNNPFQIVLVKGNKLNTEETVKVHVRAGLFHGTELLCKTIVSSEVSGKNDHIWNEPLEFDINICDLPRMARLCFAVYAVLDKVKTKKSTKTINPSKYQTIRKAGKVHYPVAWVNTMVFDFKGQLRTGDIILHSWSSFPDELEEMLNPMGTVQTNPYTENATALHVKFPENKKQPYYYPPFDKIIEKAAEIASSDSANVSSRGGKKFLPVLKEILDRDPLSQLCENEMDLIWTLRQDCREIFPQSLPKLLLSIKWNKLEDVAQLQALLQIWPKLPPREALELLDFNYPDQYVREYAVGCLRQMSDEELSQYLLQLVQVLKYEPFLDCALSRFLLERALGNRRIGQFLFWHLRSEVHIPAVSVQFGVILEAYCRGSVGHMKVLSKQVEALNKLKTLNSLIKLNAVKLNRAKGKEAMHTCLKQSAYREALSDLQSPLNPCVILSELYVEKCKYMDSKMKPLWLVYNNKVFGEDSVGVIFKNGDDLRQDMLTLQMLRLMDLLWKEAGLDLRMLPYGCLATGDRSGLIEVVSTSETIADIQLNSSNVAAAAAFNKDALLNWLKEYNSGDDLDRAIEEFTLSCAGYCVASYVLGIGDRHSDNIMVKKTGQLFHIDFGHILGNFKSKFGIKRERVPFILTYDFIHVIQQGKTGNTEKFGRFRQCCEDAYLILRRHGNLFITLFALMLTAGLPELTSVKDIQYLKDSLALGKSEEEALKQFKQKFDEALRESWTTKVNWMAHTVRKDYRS
# Test description: PI3K beta kinase assay (Kinase-Glo luminescence)
Reported property: IC50 (nM)

> print(dat)
                                   molecule                           subject.of.test  value.measured
1  Cc1cnn(C)c1-n1c(=O)n(C)c2cnc3ccc(-c4cncc(OC(C)C)c4)cc3c21 [Example 58.3]  PI3K beta (Homo sapiens, UniProt P42338)             203
2  COc1ccc(-c2ccc3ncc4c(c3c2)n(-c2cn(C(C)C)nc2C)c(=O)n4C)cn1 [Example 2.8]  PI3K beta (Homo sapiens, UniProt P42338)             109
3  Cc1nn(C(C)C)cc1-n1c(=O)n(C)c2cnc3ccc(-c4cncc(N)c4)cc3c21 [Example 45.3]  PI3K beta (Homo sapiens, UniProt P42338)             169
4  Cc1nn(C)cc1-n1c(=O)n(C)c2cnc3ccc(-c4cncc(C(C)(C)CO)c4)cc3c21 [Example 229]  PI3K beta (Homo sapiens, UniProt P42338)               8
5  COCCOc1cc(-c2ccc3ncc4c(c3c2)n(-c2cn(C)nc2C)c(=O)n4C)cnc1C [Example 86.2]  PI3K beta (Homo sapiens, UniProt P42338)              21
6  Cc1nn(C)cc1-n1c(=O)n(C)c2cnc3ccc(-c4cncc(OCC5CC5)c4)cc3c21 [Example 61]  PI3K beta (Homo sapiens, UniProt P42338)              25
7  CCNc1cc(-c2ccc3ncc4c(c3c2)n(-c2c(C)noc2C)c(=O)n4C)cnc1F [Example 154.2]  PI3K beta (Homo sapiens, UniProt P42338)              76

----------
compounds and their reported solubility
# Test description: Solubility at pH 6.8
# Type: physicochemical
# Measurement parameters: pH 6.8
Reported property: solubility (µg/mL)

> print(dat)
                            compound.smiles  unit.of.measurement  value.measured
1  Cc1nn(C)cc1-n1c(=O)n(C)c2cnc3ccc(-c4ccc(-n5cccn5)nc4)cc3c21                µg/mL               2
2  Cc1nn(C)cc1-n1c(=O)n(C)c2cnc3ccc(-c4cccc(O)c4)cc3c21                µg/mL               2
3  CCOc1ccc(-c2ccc3ncc4c(c3c2)n(-c2cn(C)nc2C)c(=O)n4C)cc1OC                µg/mL               2

----------
# Subject of test: PI3K alpha (Homo sapiens, UniProt P42336)
# Construct: p85(iSH2) fusion partner (see partner chain) (N); His tag (C); Tn5 (Trichoplusia ni) or TiniPro insect cells
# Sequence (P42336 with tags, fused parts or gaps limits assumed): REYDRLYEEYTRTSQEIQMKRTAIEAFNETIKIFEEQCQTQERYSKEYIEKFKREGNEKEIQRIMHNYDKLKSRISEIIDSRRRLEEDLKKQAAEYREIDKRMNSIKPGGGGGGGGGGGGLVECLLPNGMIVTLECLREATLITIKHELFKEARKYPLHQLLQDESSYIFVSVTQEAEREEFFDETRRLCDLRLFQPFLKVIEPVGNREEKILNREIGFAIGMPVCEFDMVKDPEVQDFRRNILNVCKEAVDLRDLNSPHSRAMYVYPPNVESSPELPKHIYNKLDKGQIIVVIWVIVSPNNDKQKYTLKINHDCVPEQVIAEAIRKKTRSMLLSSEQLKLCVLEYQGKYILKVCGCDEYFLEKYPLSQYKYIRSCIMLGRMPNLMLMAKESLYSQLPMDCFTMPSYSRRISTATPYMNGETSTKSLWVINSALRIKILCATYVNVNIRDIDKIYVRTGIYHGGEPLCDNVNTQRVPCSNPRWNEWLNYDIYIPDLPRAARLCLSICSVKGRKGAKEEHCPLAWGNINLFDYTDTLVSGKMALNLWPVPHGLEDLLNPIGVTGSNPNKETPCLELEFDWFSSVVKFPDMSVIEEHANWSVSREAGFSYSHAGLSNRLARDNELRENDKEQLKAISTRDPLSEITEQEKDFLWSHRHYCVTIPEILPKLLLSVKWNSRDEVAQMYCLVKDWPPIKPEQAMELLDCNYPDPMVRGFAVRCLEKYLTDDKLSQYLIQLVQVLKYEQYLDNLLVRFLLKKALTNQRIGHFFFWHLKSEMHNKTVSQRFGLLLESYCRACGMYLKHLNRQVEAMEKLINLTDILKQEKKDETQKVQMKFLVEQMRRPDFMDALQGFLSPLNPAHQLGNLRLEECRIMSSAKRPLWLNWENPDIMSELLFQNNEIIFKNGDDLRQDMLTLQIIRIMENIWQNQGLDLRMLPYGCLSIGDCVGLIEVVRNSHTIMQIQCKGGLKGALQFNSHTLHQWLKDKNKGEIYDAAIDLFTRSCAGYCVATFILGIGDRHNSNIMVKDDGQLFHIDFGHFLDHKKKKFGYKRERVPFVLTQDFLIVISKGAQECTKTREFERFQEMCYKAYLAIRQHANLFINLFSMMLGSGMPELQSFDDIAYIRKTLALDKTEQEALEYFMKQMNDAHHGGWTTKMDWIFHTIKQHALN
# Test description: PI3K alpha kinase assay (Kinase-Glo luminescence)
Reported property: IC50 (nM)

> print(dat)
                            compound.smiles  reported.property  value.measured
1  COCc1cncc(-c2ccc3ncc4c(c3c2)n(-c2cn(C)nc2C)c(=O)n4C)c1               IC50              17
2  CCNc1cc(-c2ccc3ncc4c(c3c2)n(-c2cn(CC)nc2C)c(=O)n4C)cnc1COC               IC50               7
3  Cc1nn(C(C)C)cc1-n1c(=O)n(C)c2cnc3ccc(-c4cnc(N(C)C)nc4)cc3c21               IC50              29
4  Cc1nn(C)cc1-n1c(=O)n(C)c2cnc3ccc(-c4ccc(N5CCCC5)nc4)cc3c21               IC50              85

----------
molecules and their reported solubility
# Test description: Solubility at pH 6.8
# Type: physicochemical
# Measurement parameters: pH 6.8, aqueous buffer, thermodynamic from solid; read-out: solubility
Reported property: solubility (µg/mL)

> print(dat)
                            compound.smiles  sign  value.measured
1  Cc1nn(C)cc1-n1c(=O)n(C)c2cnc3ccc(-c4cncc(N(C)C)c4)cc3c21     =              25
2  COc1ccc(-c2ccc3ncc4c(c3n2)n(-c2cc(C)nn2C)c(=O)n4C)cc1OC     =               7
3  Cc1nn(C(C)C)cc1-n1c(=O)n(C)c2cnc3ccc(-c4ccc(CO)nc4)cc3c21     >             428
4  CCOc1cc(-c2ccc3ncc4c(c3c2)n(-c2cn(CCO)nc2C)c(=O)n4C)cnc1C     =               3

----------
# Subject of test: PI3K alpha (Homo sapiens)
# Construct: p85(iSH2) fusion partner (see partner chain) (N); His tag (C); Tn5 (Trichoplusia ni) or TiniPro insect cells
# Test description: PI3K alpha kinase assay (Kinase-Glo luminescence)
pIC50: −log10 of the molar value.
Would you mind classing the entries by pIC50? Ranges: label 0 = under 7, label 1 = from 7 up to 8, label 2 = 8 and over

> print(dat)
                             compound.smiles    label
 1  COCCOc1cncc(-c2ccc3ncc4c(c3c2)n(-c2cn(C)nc2Cl)c(=O)n4C)c1  label 2
 2  Cc1nn(C)cc1-n1c(=O)n(C)c2cnc3ccc(-c4cnc5c(c4)nnn5C)cc3c21  label 1
 3  CNc1ncc(-c2ccc3ncc4c(c3c2)n(-c2cn(C(C)C)nc2C)c(=O)n4C)cc1Cl  label 1
 4  COc1ccc(-c2ccc3ncc4c(c3c2)n(-c2c(C)cnn2C)c(=O)n4C)cc1OC  label 1
 5  CCNc1ncc(-c2ccc3ncc4c(c3c2)n(-c2cn(C)nc2C)c(=O)n4C)cc1Cl  label 1
 6  COc1ccc(-c2ccc3ncc4[nH]c(=O)n(-c5cn(C)nc5C)c4c3n2)cc1OC  label 2
 7  CNC(=O)c1ccc(-c2ccc3ncc4c(c3c2)n(-c2c(C)nn(C)c2C)c(=O)n4C)cn1  label 0
 8  Cc1nn(C)cc1-n1c(=O)n(C)c2cnc3ccc(-c4ccc(N5CC[C@H](O)C5)nc4)cc3c21  label 0
 9  Cc1nn(C)c(C)c1-n1c(=O)n(C)c2cnc3ccc(-c4cnc(N)c(F)c4)cc3c21  label 1
10  CCn1c(=O)n(-c2cn(C)nc2C)c2c3cc(-c4cncc(N)c4)ccc3ncc21  label 1

----------
# Test system: PKB Ser473 phosphorylation in Rat1-myr-HA-p110 alpha cells
# Test description: Reverse protein array assay, PKB Ser473 phosphorylation in Rat1-myr-p110 alpha cells
# Format: cell-based
# Measurement parameters: 0.5 h, pAkt Ser473, 30 minutes compound incubation, read-out: p-PKB IC50
pIC50: −log10 of the molar value.
compounds and their reported pIC50
Reported property: pIC50

> print(dat)
                             compound.smiles                           subject.of.test  sign  value.measured
 1  Cc1nn(C)cc1-n1c(=O)n(C)c2cnc3ccc(-c4ccc5c(c4)CCN5C)cc3c21  PKB Ser473 phosphorylation in Rat1-myr-HA-p110 alpha cells     =            7.14
 2  CCn1cc(-n2c(=O)n(C)c3cnc4ccc(-c5ccc(OC)c(OC)c5)nc4c32)c(C)n1  PKB Ser473 phosphorylation in Rat1-myr-HA-p110 alpha cells     =            7.52
 3  CCn1cc(-n2c(=O)n(C)c3cnc4ccc(-c5cncc(C6(C#N)CCC6)c5)cc4c32)c(C)n1  PKB Ser473 phosphorylation in Rat1-myr-HA-p110 alpha cells     =            7.74
 4  Cc1nn(C)cc1-n1c(=O)n(C)c2cnc3ccc(-c4cccnc4)cc3c21  PKB Ser473 phosphorylation in Rat1-myr-HA-p110 alpha cells     =            7.30
 5  COc1ncc(-c2ccc3ncc4c(c3c2)n(-c2cn(C)nc2Cl)c(=O)n4C)cn1  PKB Ser473 phosphorylation in Rat1-myr-HA-p110 alpha cells     =            7.68
 6  CCNc1cc(-c2ccc3ncc4c(c3c2)n(-c2c(C)nn(C)c2C)c(=O)n4C)cnc1CO  PKB Ser473 phosphorylation in Rat1-myr-HA-p110 alpha cells     =            7.06
 7  CCOc1cc(-c2ccc3ncc4c(c3c2)n(-c2c(C)nn(C)c2C)c(=O)n4C)ccc1OC  PKB Ser473 phosphorylation in Rat1-myr-HA-p110 alpha cells     =            7.12
 8  CNc1ncc(-c2ccc3ncc4c(c3c2)n(-c2cn(C)nc2C)c(=O)n4C)cc1COC  PKB Ser473 phosphorylation in Rat1-myr-HA-p110 alpha cells     =            8.05
 9  CNc1ncc(-c2ccc3ncc4c(c3c2)n(-c2cn(C)nc2Cl)c(=O)n4C)cc1C  PKB Ser473 phosphorylation in Rat1-myr-HA-p110 alpha cells     =            8.22
10  CCc1ncc(-c2ccc3ncc4c(c3c2)n(-c2cn(C)nc2C)c(=O)n4C)cc1OC(C)C  PKB Ser473 phosphorylation in Rat1-myr-HA-p110 alpha cells     >            8.30
11  CCn1cc(-n2c(=O)n(C)c3cnc4ccc(-c5ccc(N(C)C)nc5)cc4c32)c(C)n1  PKB Ser473 phosphorylation in Rat1-myr-HA-p110 alpha cells     =            7.85
12  CCOCc1cc(-c2ccc3ncc4c(c3c2)n(-c2cn(C(C)C)nc2C)c(=O)n4C)cnc1N  PKB Ser473 phosphorylation in Rat1-myr-HA-p110 alpha cells     =            7.40
13  Cc1nn(C(C)C)cc1-n1c(=O)n(C)c2cnc3ccc(-c4cncc(N)c4)cc3c21  PKB Ser473 phosphorylation in Rat1-myr-HA-p110 alpha cells     =            7.85
14  Cc1nn(C(C)C)cc1-n1c(=O)n(C)c2cnc3ccc(-c4ccc(N)nc4)cc3c21  PKB Ser473 phosphorylation in Rat1-myr-HA-p110 alpha cells     =            7.96
15  Cc1nn(C)cc1-n1c(=O)n(C)c2cnc3ccc(-c4cncc(C(C)(C)CO)c4)cc3c21  PKB Ser473 phosphorylation in Rat1-myr-HA-p110 alpha cells     =            6.55
16  COc1ccc(-c2ccc3ncc4c(c3c2)n(-c2cn(C(C)C)nc2C)c(=O)n4C)cn1  PKB Ser473 phosphorylation in Rat1-myr-HA-p110 alpha cells     =            7.34
